Where do these numbers come from? They come from patent US9555038B2.

Each entry below lists one item and its recorded pIC50 value.
- Test system: HCV replicon 1AY93H
- experimental-protocol: Cell-based HCV Replicon Assay A, replicon 1AY93H
- run-parameters: read-out: 1A Y93H IC50, replicon 1AY93H
- Description: To measure cell-based anti-HCV activity of compounds of the present invention, two complimentary assays were employed using various replicons. […] The replicon RNA level was measured using real time PCR (TaqMan® EZ RT-PCR, Applied Biosystems 403028) with the following primers and probes: […] The amount of HCV replicon RNA per cell is quantified using a linear regression curve for a known nanogram (ng) amount of HCV replicon total RNA. […]
Give only the number. pIC50 is defined as minus log10 of concentration in molar units.

compound	measured-number
COC(=O)NC(C(=O)N1CCC[C@H]1c1ncc(-c2ccc3c(c2)cc2n3C(c3cnc(C4CCC4)s3)Oc3cc(-c4cnc([C@@H]5CCCN5C(=O)[C@@H](NC(=O)OC)C(C)C)[nH]4)cc(F)c3-2)[nH]1)C1C[C@@H](C)O[C@@H](C)C1 (single isomer, unassigned) [Compound 67]	9.65

pIC50 recorded for this compound, COC(=O)N[C@H](C(=O)N1CCC[C@H]1c1ncc(-c2cc(F)c3c(c2)OC(c2cnc(C4CC4)s2)n2c-3c(F)c3cc(-c4cnc([C@@H]5CCCN5C(=O)[C@@H](NC(=O)OC)C5CCOCC5)[nH]4)ccc32)[nH]1)C(C)C (single isomer, unassigned) [Compound 42] , is 10.85

pIC50 recorded for this compound, COC(=O)N[C@H](C(=O)N1CCC[C@H]1c1ncc(-c2cc(F)c3c(c2)OC(c2cnc(C4CC4)s2)n2c-3c(F)c3cc(-c4cnc([C@@H]5CCCN5C(=O)[C@@H](NC(=O)OC)C(C)C)[nH]4)ccc32)[nH]1)C(C)C (single isomer, unassigned) [Compound 21] , is 10.75

---

- System: HCV replicon 1AQ30D
- experimental-protocol: Cell-based HCV Replicon Assay B, replicon 1AQ30D
- run-parameters: Hepatitis C virus, read-out: 1A Q30D IC50 (nM), replicon 1AQ30D
Each entry below lists one item and its recorded IC50 value.
Answers without a unit are incomplete; give the number and then its unit.

molecule	result
COC(=O)N[C@H](C(=O)N1CCC[C@H]1c1ncc(-c2cc(F)c3c(c2)OC(c2cnc(C4CCCCC4)s2)n2c-3cc3cc(-c4cnc([C@@H]5CCCN5C(=O)[C@@H](NC(=O)OC)C(C)C)[nH]4)ccc32)[nH]1)C(C)C (stereo partly drawn)	0.065 nM
COC(=O)NC(C(=O)N1CCC[C@H]1c1ncc(-c2ccc3c(c2)cc2n3C(c3cnc(C(C)(C)O)s3)Oc3cc(-c4cnc([C@@H]5CCCN5C(=O)[C@@H](NC(=O)OC)C(C)C)[nH]4)cc(F)c3-2)[nH]1)C1C[C@@H](C)O[C@@H](C)C1 (single isomer, unassigned)	0.021 nM

From here, focus on the item given below.
IC50 recorded for this molecule, COC(=O)NC(C(=O)N1CCC[C@H]1c1ncc(-c2ccc3c(c2)cc2n3C(c3cnc(C4(C)CC4)s3)Oc3cc(-c4cnc([C@@H]5CCCN5C(=O)[C@@H](NC(=O)OC)C(C)C)[nH]4)cc(F)c3-2)[nH]1)C1C[C@@H](C)O[C@@H](C)C1 (single isomer, unassigned) , is 0.038 nM

---

- System: HCV replicon 1AY93H
- experimental-protocol: Cell-based HCV Replicon Assay A, replicon 1AY93H
- run-parameters: read-out: 1A Y93H IC50, replicon 1AY93H
- Description: To measure cell-based anti-HCV activity of compounds of the present invention, two complimentary assays were employed using various replicons. […] The replicon RNA level was measured using real time PCR (TaqMan® EZ RT-PCR, Applied Biosystems 403028) with the following primers and probes: […] The amount of HCV replicon RNA per cell is quantified using a linear regression curve for a known nanogram (ng) amount of HCV replicon total RNA. […]
quantity: pIC50
Give only the number. pIC50 is defined as minus log10 of concentration in molar units.

Examples with their reported pIC50 follow.
molecule	test-target	pIC50
COC(=O)N[C@H](C(=O)N1CCC[C@H]1c1ncc(-c2cc(F)c3c(c2)OC(c2cnc(Oc4ccc(F)cc4)s2)n2c-3cc3cc(-c4cnc([C@@H]5CCCN5C(=O)[C@@H](NC(=O)OC)C(C)C)[nH]4)ccc32)[nH]1)C(C)C (single isomer, unassigned) [Compound 50]	HCV replicon 1AY93H	9.92
COC(=O)N[C@H](C(=O)N1CCC[C@H]1c1ncc(-c2cc(C)c3c(c2)OC(c2ncc(C4CC4)s2)n2c-3cc3cc(-c4cnc([C@@H]5CCCN5C(=O)[C@@H](NC(=O)OC)C5C[C@@H](C)O[C@@H](C)C5)[nH]4)ccc32)[nH]1)C(C)C (single isomer, unassigned) [Compound 48]	HCV replicon 1AY93H	10.27

From here, focus on the item given below.
pIC50 recorded for this molecule, COC(=O)N[C@H](C(=O)N1CCC[C@H]1c1ncc(-c2cc(C)c3c(c2)OC(c2cnc(C4CC4)s2)n2c-3cc3cc(-c4cnc([C@@H]5C[C@H]6C[C@H]6N5C(=O)[C@@H](NC(=O)OC)C(C)(C)F)[nH]4)ccc32)[nH]1)C(C)C (single isomer, unassigned) [Compound 209] , is 9.71
